PROCEDURE_SUMMARY: NCI Yeast Anticancer Drug Screen. Data for the rad50 strain (AID 155);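 also: 0% = growth of vehicle-only cultures of the same strain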
STATED_CONDITIONS: S. cerevisiae rad50 strain growth inhibition; at 50.0 µM
This is part of a sample that, as a whole, favours compounds with a hit. Of some 79,000 tested, about 15% had one in any assay. Activity calls are given as the source filed them. Rule as the data show it: active = growth inhibition above about 70%; inactive = the rest. Starred links: 1 amine or outer side, 2 acyl side, 3 side chain; linkers in the order of their positions; H or OH if unused. Positions of bridges follow the written chain, without caps; N, C: chain ends. Non-standard residues stand in square brackets, D forms with d. Residues, ends and D or L forms follow the SMILES beside them. Chains are numbered I, II in the order given. Actinocin(9to1) = Cc1c2oc3c(C)ccc(C(=O)[*:1])c3nc-2c(C(=O)[*:2])c(N)c1=O; aThr = C[C@H](O)[C@H](N)C(=O)O; NMeV = CN[C@H](C(=O)O)C(C)C; Sar = CNCC(=O)O
Outcomes you can answer with include only these: class 1 (active), class 0 (inactive)

Record lookup: outcome of this test for "CCOC(=O)/C=C1\CCCn2c1ncc(C(=O)OCC)c2=O" ?
class 0

What call does the record list for "O=Cn1c2ccccc2c2ccccc21" ?
class 0

Which result was noted for this molecule in the test: OCC(O)C(O)C(O)C(O)c1nc2ccccc2[nH]1 (configuration not stated)
class 0

Just curious, what result did Cc1c2oc3c(C)ccc(C(=O)N[C@@H]4C(=O)N[C@H](C(C)C)C(=O)N5CCC[C@H]5C(=O)N(C)CC(=O)N(C)[C@@H](C(C)C)C(=O)O[C@H]4C)c3nc-2c(C(=O)N[C@@H]2C(=O)N[C@H](C(C)C)C(=O)N3CCC[C@H]3C(=O)N(C)CC(=O)N(C)[C@@H](C(C)C)C(=O)O[C@H]2C)c(N)c1=O (I: [aThr][dV]P[Sar][NMeV] / II: [aThr][dV]P[Sar][NMeV]; ester I:1-I:C, II:1-II:C; linker I:N-II:N via Actinocin(9to1)) get here?
class 1

Could you please tell me the result logged for CC1(C)CC(=O)C(C(CC(c2ccccc2)c2cc3c(cc2O)OCO3)C2=C(O)CC(C)(C)CC2=O)=C(O)C1 (configuration not stated) in this assay?
class 1

Would you mind telling me which call this test gave "O=C(CCC(=O)c1ccc(O)cc1)Oc1ccc(O)cc1" ?
class 0

What outcome does the record of this test show for "CC(=O)CC[N+](C)(C)C" ?
class 0

###

PROCEDURE_SUMMARY: NCI Yeast Anticancer Drug Screen. Data for the rad18 strain (AID 177)
STATED_CONDITIONS: S. cerevisiae rad18 mutant growth inhibition; at 33.0 µM; hits give high values
Compounds without any hit were thinned out: in the full panel of roughly 79,000, 15% have a hit.
growth inhibition vs 80%: at or above is true (1), below is false (0).

Is growth inhibition for "Cc1ccc(Nc2n[nH]c(=S)s2)cc1C" at or above 80%?
false (0)

Confirm if growth inhibition reported for the compound "Cc1cnccc1N=Nc1ccc(N(C)C)cc1" is 80% or above.
false (0)

Can "COc1ccc2cc(CN3CCC(C4CCN(Cc5ccc6cc(OC)ccc6c5)CC4)CC3)ccc2c1" be said to have growth inhibition at or above 80%?
false (0)

Decide: is the reported value of growth inhibition for "COc1ccc(C(=O)OCCc2ccccc2)cc1" equal to or greater than 80%?
false (0)

Threshold query (growth inhibition >= 80%) on "O=S(=O)(O)CC[S][Sn]([S]CCS(=O)(=O)O)([c]1ccccc1)[c]1ccccc1"
true (1)

Given the entry "CN(C)N=Nc1ccc(NC=O)cc1" , answer whether its growth inhibition meets or surpasses 80%.
true (1)

Would you say O=C1C(C(O)(C(F)(F)F)C(F)(F)F)CCC1C(O)(C(F)(F)F)C(F)(F)F (stereo not drawn) shows growth inhibition at minimum 80%?
false (0)

Form field: growth inhibition at least 80%? Entry: "CN(C)/N=N/c1nc[nH]c1C(N)=O"
false (0)

Determine whether measured growth inhibition meets or exceeds 80% for "CN(Cc1cccc2ccccc12)Cc1cccc2ccccc12"
false (0)

Is the recorded value of growth inhibition equal to or greater than 80% for this compound? "C=Cc1c(C)c(O)cc2c1-c1ccc(O)c(C)c1CC2"
true (1)

I'd appreciate it if you could say whether "O=C(O)CN(CCNC(=O)OCC1c2ccccc2-c2ccccc21)CCNC(=O)OCC1c2ccccc2-c2ccccc21" has growth inhibition at least equal to 80%.
true (1)

Is reported growth inhibition greater than or equal to 80% here: OC(c1ccc(Br)cc1)(c1cccs1)C1CC1 (stereo not drawn)
true (1)

Say whether "Nc1ccc2ncc(Nc3ccc(Cl)c(Cl)c3)nc2c1" shows growth inhibition of 80% or more.
true (1)

Is it the case that "Cc1ccc(C(C)C)c(C(=C2C=CC(=[N+](C)C)C=C2)c2c(C(C)C)ccc(C)c2O)c1O" has growth inhibition reaching or exceeding 80%?
true (1)

Test whether the compound "CCCCCC/C(C)=N/Nc1ccc([N+](=O)[O-])cc1[N+](=O)[O-]" records growth inhibition of 80% or higher.
false (0)

Tell me whether growth inhibition is at least 80% here: S=C1NC2=C(CSC/C2=C\c2ccc(Cl)cc2)C(c2ccc(Cl)cc2)N1 (stereo not drawn)
false (0)

Exam item: decide whether the reported growth inhibition for "CCCCCCCCCCCCCCCCCN" is at least 80%.
false (0)

Please tell me: is the compound CC(C)c1ccc(C2NC(=S)NC3=C2c2ccccc2C3=O)cc1 (stereo not drawn) at or over 80% in terms of growth inhibition?
false (0)

Please check the record "CCCC(=O)OC(OC(=O)CCC)c1ccc([N+](=O)[O-])o1" and state if its growth inhibition is at or above 80%.
true (1)

Given the entry "C[Si](C)(C)Cc1ccccc1C(=O)O" , answer whether its growth inhibition meets or surpasses 80%.
false (0)

Say whether "CCOC(=O)c1sc2[n+](c1C)C(=O)/C(=C/c1cc(OC)c(OC)c(OC)c1)S2" shows growth inhibition of 80% or more.
false (0)

Does the reported growth inhibition for CC1C=CN(N(C)C)C2=C1C(=O)c1cnccc1C2=O (stereo not drawn) fall at or above the 80% mark?
true (1)

Form field: growth inhibition at least 80%? Entry: "CN(C)CCNC(=O)c1cccc2nc3c4ccccc4c4ccccc4c3nc12"
true (1)

###

PROCEDURE_SUMMARY: NCI Yeast Anticancer Drug Screen. Data for the mgt1 strain (AID 153)
STATED_CONDITIONS: S. cerevisiae mgt1 mutant growth inhibition; at 11.0 µM; hits give high values
Compounds without any hit were thinned out: in the full panel of roughly 79,000, 15% have a hit.
Please go through the items and note down their growth inhibition.
The answer is to be given in %; state only the numeric part.

"Cc1cnc(/C=N\NC(N)=S)c2cccc(N)c12" yielded growth inhibition of -12

Documented growth inhibition of "O=C(CCC(=O)c1ccc(O)cc1)Oc1ccc(O)cc1" : 2

Looking up "CCOC(=O)/C(O)=C(/C=N/C(=S)Nc1c(CC)cccc1CC)C(=O)OCC" , I found its growth inhibition recorded as 0

For this compound ( NCC(O)CSCc1ccc(Cl)cc1 (stereo not given) ), measured growth inhibition is -2

Value of growth inhibition reported for the compound "CN(Cc1cccc2ccccc12)Cc1cccc2ccccc12" is -7

# growth inhibition of "c1cncc(C(Nc2cccc3cccnc23)Nc2cccc3cccnc23)c1" = 3

Form field growth inhibition, entry "O=[N+]([O-])c1ccc2nnnn2c1" : 4

Per the record, COc1cc(C(C)C(C(=O)O)C(=O)C(=O)O)cc(OC)c1OC (stereo not given) has growth inhibition of 2

The value of growth inhibition measured for the compound "Cc1ccc(Cl)c2c(=O)c3ccccc3[nH]c12" turned out to be 0

compound O=C1OC(c2ccc(Cl)cc2)Sc2ccccc21 (stereo not given) , growth inhibition observed: 17

For reference, reported growth inhibition for "C[Si](C)(C)Cc1ccccc1C(=O)O" stands at -2

// growth inhibition lookup, compound = "CCOc1ccc2ccc3cccnc3c2n1" , result: -10

Form: compound = "O=C1C(Br)=CC(Br)(Br)C=C1Br" ; growth inhibition = 58

growth inhibition reading for O=C1OC(/C=C/c2ccccc2)Sc2ccccc21 (stereo not given) : 4

Item: "COC1=C(N=[N+]=[N-])C(=O)c2ncccc2C1=O" | growth inhibition: 31

Note to self: growth inhibition recorded for CC[N+]1(C)CCC(O)(/C=C/c2ccc(Cl)c(Cl)c2)C(C(=O)/C=C/c2ccc(Cl)c(Cl)c2)C1 (stereo not given) was 99

Reported growth inhibition for "[O-]c1c2cc(-[n+]3c(-c4ccccc4)cc(-c4ccccc4)cc3-c3ccccc3)cc1COCCOCCOCCOCCOC2" was -13

According to the records, this compound "CN(C)CCNC(=O)c1cccc2nc3c4ccccc4c4ccccc4c3nc12" displays growth inhibition of 43

GET /value?item= "O=S(=O)(O)c1ccc2c(N=Nc3c(O)ccc4ccccc34)cccc2c1" &field=growth inhibition returns 12

Reported growth inhibition of "S=c1[nH]nc(Cc2ccccc2)c(=S)[nH]1" : 83

The compound listed as "CC[C@@]1(OC(=O)CN(C)C)C(=O)OCc2c1cc1n(c2=O)Cc2cc3ccccc3nc2-1" shows growth inhibition equal to 32

Value of measured growth inhibition for the entry "Oc1ccc(Br)cc1C=Nc1cccc(C(F)(F)F)c1" : 75

// "CCc1nc2ccc(N=Nc3c(O)ccc4ccccc34)cc2[nH]1" : growth inhibition value = -6

Notebook: "COc1ccc2c(Cc3c4ccccc4cc4ccccc34)cncc2c1O" , growth inhibition read as 11

// field: growth inhibition; key: "CCOc1nc(OCC)nc(-c2cccn2-c2ccccc2)n1" ; value = 6
